species on record: Rattus norvegicus; assay: Open TG-GATES - Regimen: Daily Repeat; assay type: toxicity, organism-based, Sprague-Dawley; design: regimen Daily Repeat, gender Male, age 6 weeks; conditions: in vivo, po, 0 mg/kg, 72 h, tissue Blood, route gavage, dose level Control, time 3 day
outcomeMeasure: Eos (%)
API: value field is a number in %; no unit string.

Dear colleague, I am looking for the recorded Eos of the following compound: CCOC(=O)CCC(=O)O[C@H]1[C@H](O[C@@H]2[C@@H](C)[C@H](O[C@H]3C[C@@](C)(OC)[C@@H](O)[C@H](C)O3)[C@@H](C)C(=O)O[C@H](CC)[C@@](C)(O)[C@H](O)[C@@H](C)C(=O)[C@H](C)C[C@@]2(C)O)O[C@H](C)C[C@@H]1N(C)C [ERYTHROMYCIN ETHYLSUCCINATE]
1

Dear colleague, I am looking for the recorded Eos of the following compound: CC(C)OC(=O)C(C)(C)Oc1ccc(C(=O)c2ccc(Cl)cc2)cc1 [FENOFIBRATE]
1.2

Dear colleague, I am looking for the recorded Eos of the following compound: O=C(CCCN1CCC(O)(c2ccc(Cl)cc2)CC1)c1ccc(F)cc1
0.2

Dear colleague, I am looking for the recorded Eos of the following compound: COc1ccc2[nH]c([S+]([O-])Cc3ncc(C)c(OC)c3C)nc2c1 (stereo unspecified)
1.2

Dear colleague, I am looking for the recorded Eos of the following compound: CN(C)CCN(Cc1cccs1)c1ccccn1
0.6

Dear colleague, I am looking for the recorded Eos of the following compound: NC(N)=Nc1nc(CSCCC(N)=NS(N)(=O)=O)cs1
1

Dear colleague, I am looking for the recorded Eos of the following compound: CN(C)CCCN1c2ccccc2CCc2ccccc21
1

Dear colleague, I am looking for the recorded Eos of the following compound: CCCNC(=O)NS(=O)(=O)c1ccc(Cl)cc1 [CHLORPROPAMIDE]
1

Dear colleague, I am looking for the recorded Eos of the following compound: CC1=C(/C=C/C(C)=C/C=C/C(C)=C/CO)C(C)(C)CCC1
0.8

Dear colleague, I am looking for the recorded Eos of the following compound: COC1=CC(=O)C[C@@H](C)[C@]12Oc1c(Cl)c(OC)cc(OC)c1C2=O
1

Dear colleague, I am looking for the recorded Eos of the following compound: CCOc1ccc(NC(=O)CC(C)O)cc1 (stereo unspecified)
1

====

Provide the recorded MCV for the entries that follow.
species on record: Rattus norvegicus; assay: Open TG-GATES - Regimen: Single; format: toxicity, organism-based, Sprague-Dawley; parameters: regimen Single, gender Male, age 6 weeks; conditions: in vivo, po, 0 mg/kg, 24 h, tissue Blood, route gavage, dose level Control
API: value field is a number in fL; no unit string.

Dear colleague, I am looking for the recorded MCV of the following compound: CN(C)CCCN1c2ccccc2CCc2ccc(Cl)cc21 [CLOMIPRAMINE]
63.4

Dear colleague, I am looking for the recorded MCV of the following compound: Cc1ccc(C)c(OCCCC(C)(C)C(=O)O)c1 [GEMFIBROZIL]
62.6

Dear colleague, I am looking for the recorded MCV of the following compound: CC1=C(/C=C/C(C)=C/C=C/C(C)=C/CO)C(C)(C)CCC1 [RETINOL]
63.2

Dear colleague, I am looking for the recorded MCV of the following compound: CC/C(=C(\c1ccccc1)c1ccc(OCCN(C)C)cc1)c1ccccc1 [TAMOXIFEN]
64.2

Dear colleague, I am looking for the recorded MCV of the following compound: COC1=CC(=O)C[C@@H](C)[C@]12Oc1c(Cl)c(OC)cc(OC)c1C2=O [GRISEOFULVIN]
65.4

Dear colleague, I am looking for the recorded MCV of the following compound: CN(C)CCCN1c2ccccc2CCc2ccccc21 [IMIPRAMINE]
66.7

Dear colleague, I am looking for the recorded MCV of the following compound: C[C@@H]1C[C@H]2[C@@H]3CCC4=CC(=O)C=C[C@]4(C)[C@@]3(F)[C@@H](O)C[C@]2(C)[C@@]1(O)C(=O)CO [DEXAMETHASONE]
65.6

Dear colleague, I am looking for the recorded MCV of the following compound: CN1C(=O)CN=C(c2ccccc2)c2cc(Cl)ccc21 [DIAZEPAM]
65.8

Dear colleague, I am looking for the recorded MCV of the following compound: CCCNC(=O)NS(=O)(=O)c1ccc(Cl)cc1 [CHLORPROPAMIDE]
67.3

Dear colleague, I am looking for the recorded MCV of the following compound: CCOC(=O)CCC(=O)O[C@H]1[C@H](O[C@@H]2[C@@H](C)[C@H](O[C@H]3C[C@@](C)(OC)[C@@H](O)[C@H](C)O3)[C@@H](C)C(=O)O[C@H](CC)[C@@](C)(O)[C@H](O)[C@@H](C)C(=O)[C@H](C)C[C@@]2(C)O)O[C@H](C)C[C@@H]1N(C)C [ERYTHROMYCIN ETHYLSUCCINATE]
64.2

Dear colleague, I am looking for the recorded MCV of the following compound: NC(N)=Nc1nc(CSCCC(N)=NS(N)(=O)=O)cs1 [FAMOTIDINE]
63.2

Dear colleague, I am looking for the recorded MCV of the following compound: NNC(=O)c1ccncc1 [ISONIAZID]
62.3

====

species: Rattus norvegicus; assay: Open TG-GATES - Regimen: Daily Repeat; type: toxicity, organism-based, Sprague-Dawley; parameters: regimen Daily Repeat, gender Male, age 6 weeks; conditions: in vivo, po, 0 mg/kg, […], tissue Plasma, route gavage, dose level Control, time 7 day
Provide the recorded CRE for the entries that follow.
API: value field is a number in mg/dL; no unit string.

Dear colleague, I am looking for the recorded CRE of the following compound: NNC(=O)c1ccncc1
0.5

Dear colleague, I am looking for the recorded CRE of the following compound: CCOc1ccc(NC(=O)CC(C)O)cc1 (stereo not drawn)
0.2

Dear colleague, I am looking for the recorded CRE of the following compound: NC(N)=Nc1nc(CSCCC(N)=NS(N)(=O)=O)cs1
0.4

====

Provide the recorded TP for the entries that follow.
species: Rattus norvegicus; assay: Open TG-GATES - Regimen: Daily Repeat; format: toxicity, organism-based, Sprague-Dawley; parameters: regimen Daily Repeat, gender Male, age 6 weeks; settings: in vivo, po, 100 mg/kg, […], tissue Plasma, route gavage, dose level Low, time 7 day

Dear colleague, I am looking for the recorded TP of the following compound: CCOC(=O)CCC(=O)O[C@H]1[C@H](O[C@@H]2[C@@H](C)[C@H](O[C@H]3C[C@@](C)(OC)[C@@H](O)[C@H](C)O3)[C@@H](C)C(=O)O[C@H](CC)[C@@](C)(O)[C@H](O)[C@@H](C)C(=O)[C@H](C)C[C@@]2(C)O)O[C@H](C)C[C@@H]1N(C)C [ERYTHROMYCIN ETHYLSUCCINATE]
5.5 g/dL

Dear colleague, I am looking for the recorded TP of the following compound: CCOc1ccc(NC(=O)CC(C)O)cc1 (stereo not drawn)
6 g/dL

Dear colleague, I am looking for the recorded TP of the following compound: NC(N)=Nc1nc(CSCCC(N)=NS(N)(=O)=O)cs1
5.6 g/dL

====

species on record: Rattus norvegicus; assay: Open TG-GATES - Regimen: Single; type: toxicity, organism-based, Sprague-Dawley; set-up: regimen Single, gender Male, age 6 weeks; details: in vivo, po, 0 mg/kg, 6 h, tissue Plasma, route gavage, dose level Control
outcomeMeasure: TG (mg/dL)
API: value field is a number in mg/dL; no unit string.

Dear colleague, I am looking for the recorded TG of the following molecule: NNC(=O)c1ccncc1
52.8

Dear colleague, I am looking for the recorded TG of the following molecule: CCOC(=O)CCC(=O)O[C@H]1[C@H](O[C@@H]2[C@@H](C)[C@H](O[C@H]3C[C@@](C)(OC)[C@@H](O)[C@H](C)O3)[C@@H](C)C(=O)O[C@H](CC)[C@@](C)(O)[C@H](O)[C@@H](C)C(=O)[C@H](C)C[C@@]2(C)O)O[C@H](C)C[C@@H]1N(C)C [ERYTHROMYCIN ETHYLSUCCINATE]
67.6

Dear colleague, I am looking for the recorded TG of the following molecule: COc1cc2c(c(OC)c1OC)-c1ccc(OC)c(=O)cc1[C@@H](NC(C)=O)CC2
48.4

====

Provide the recorded BUN for the entries that follow.
species: Rattus norvegicus; test: Open TG-GATES - Regimen: Single; format: toxicity, organism-based, Sprague-Dawley; design: regimen Single, gender Male, age 6 weeks; settings: in vivo, po, 0 mg/kg, 6 h, tissue Plasma, route gavage, dose level Control
API: value field is a number in mg/dL; no unit string.

Dear colleague, I am looking for the recorded BUN of the following molecule: NC(N)=Nc1nc(CSCCC(N)=NS(N)(=O)=O)cs1
9.2

Dear colleague, I am looking for the recorded BUN of the following molecule: CCCNC(=O)NS(=O)(=O)c1ccc(Cl)cc1 [CHLORPROPAMIDE]
9.4

Dear colleague, I am looking for the recorded BUN of the following molecule: CC(C)OC(=O)C(C)(C)Oc1ccc(C(=O)c2ccc(Cl)cc2)cc1 [FENOFIBRATE]
9.6

Dear colleague, I am looking for the recorded BUN of the following molecule: O=C(CCCN1CCC(O)(c2ccc(Cl)cc2)CC1)c1ccc(F)cc1
11.4

Dear colleague, I am looking for the recorded BUN of the following molecule: NNC(=O)c1ccncc1
8.8

Dear colleague, I am looking for the recorded BUN of the following molecule: CC/C(=C(\c1ccccc1)c1ccc(OCCN(C)C)cc1)c1ccccc1
9.8

Dear colleague, I am looking for the recorded BUN of the following molecule: COc1ccc2[nH]c([S+]([O-])Cc3ncc(C)c(OC)c3C)nc2c1 (configuration not stated)
11

Dear colleague, I am looking for the recorded BUN of the following molecule: CCOc1ccc(NC(=O)CC(C)O)cc1 (configuration not stated)
8.8

Dear colleague, I am looking for the recorded BUN of the following molecule: C[C@@H]1C[C@H]2[C@@H]3CCC4=CC(=O)C=C[C@]4(C)[C@@]3(F)[C@@H](O)C[C@]2(C)[C@@]1(O)C(=O)CO
10.2

Dear colleague, I am looking for the recorded BUN of the following molecule: CN(C)CCCN1c2ccccc2CCc2ccccc21
8.4

Dear colleague, I am looking for the recorded BUN of the following molecule: CN1C(=O)CN=C(c2ccccc2)c2cc(Cl)ccc21
9.8

Dear colleague, I am looking for the recorded BUN of the following molecule: CN(C)CCCN1c2ccccc2CCc2ccc(Cl)cc21
9.2

Hey, just so you know, these numbers are from ChEMBL document CHEMBL3885861.
